- Study Target: T1, recombinant CEACAM5 antigen (Sinobiological, 11077-H08H) (UniProt P06731 35-685)
- T1 construct: Bought protein; also called CEACAM5-His recombinant protein; CEACAM5-His antigen; not shown: His tag
- T1 sequence (looked up): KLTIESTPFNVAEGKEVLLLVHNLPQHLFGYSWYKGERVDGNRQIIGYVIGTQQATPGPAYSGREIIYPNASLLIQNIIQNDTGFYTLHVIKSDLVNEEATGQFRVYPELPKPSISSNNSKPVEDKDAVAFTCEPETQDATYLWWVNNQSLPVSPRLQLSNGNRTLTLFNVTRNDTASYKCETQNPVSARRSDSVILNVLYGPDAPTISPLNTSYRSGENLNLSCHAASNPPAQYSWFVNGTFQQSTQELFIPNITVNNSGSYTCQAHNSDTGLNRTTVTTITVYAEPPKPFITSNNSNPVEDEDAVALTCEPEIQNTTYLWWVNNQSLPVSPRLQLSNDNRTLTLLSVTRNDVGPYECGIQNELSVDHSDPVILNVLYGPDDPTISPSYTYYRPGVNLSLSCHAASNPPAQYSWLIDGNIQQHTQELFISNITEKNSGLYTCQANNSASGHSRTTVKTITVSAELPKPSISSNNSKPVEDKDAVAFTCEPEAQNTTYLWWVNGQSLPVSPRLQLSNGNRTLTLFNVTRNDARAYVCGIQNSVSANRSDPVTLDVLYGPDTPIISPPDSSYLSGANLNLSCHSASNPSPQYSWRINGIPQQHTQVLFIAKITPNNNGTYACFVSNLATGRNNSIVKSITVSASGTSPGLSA
- Experiment Description: ELISA, coated recombinant CEACAM5-His 1 µg/ml, anti-human IgG Fc-HRP
For each record, write down the corresponding EC50.
One number for each entry, in µg/mL.

Answered examples (2):
Binder: Humanized antibody hAb-016 (antibody, V domains shown, also called hM19-14) VH: EVQLVESGGGLVQPGGSLRLSCAASGFTFTDYYMDWVRQAPGKALEWVGFTRNKVNGDTTEYAASVKGRFTISRDDSKNSLYLQMNSLKTEDTAVYYCARDKGIAYYFDYWGQGTLVTVSS VL: EIVLTQSPGTLSASPGERATLSCRASSSVSYIHWYQQKPGQSPRPLIYGTSNLASGVPDRFSGSGSGTDFTLTISRLEPEDAAVYYCQQWSSNLSTFGGGTKVEIK
Units Symbol: µg/mL
EC50: 4.32

Binder: Humanized antibody hAb-009 (antibody, V domains shown, also called hM19-7) VH: EVQLVESGGGLVQPGGSLRLSCAASGFTFTDYYMNWVRQAPGKALEWLGFIRNKVNGDTTEYAASVKGRFTISRDDSKNSLYLQMNSLKTEDTAVYYCARDKGIAYYFDYWGQGTLVTVSS VL: EIVLTQSPATLSASPGERATLSCRASQSVSYIHWYQQKPGQSPRPWIHGTSNLATGVPARFSGSGSGTDFTLTISSLEPEDAAVYYCQQWSSNLSTFGGGTKVEIK
Units Symbol: µg/mL
EC50: 2.87

# evaluate next
*Q* I have this binder here, Humanized antibody hAb-017 (antibody, V domains shown, also called hM19-15) VH: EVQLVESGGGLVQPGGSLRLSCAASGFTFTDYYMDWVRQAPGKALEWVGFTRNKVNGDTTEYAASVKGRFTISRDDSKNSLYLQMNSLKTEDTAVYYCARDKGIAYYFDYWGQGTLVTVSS VL: EIVLTQSPATLSASPGERATLSCRASSSVSYIHWYQQKPGQSPRPLIYGASNLASGVPARFSGSGSGTDFTLTISSLEPEDAAVYYCQQWSSNLSTFGGGTKVEIK , and I need its recorded EC50.
*A* 7.05
